- Test details: Cycloheximide Counterscreen for Small Molecule Inhibitors of Shiga Toxin; note: read at 38.3 µM for the half of the compounds with a filed dose; 0% is about no effect
- Applied conditions: cell reporter, cycloheximide protein synthesis inhibition counterscreen; active compounds read high
Among all 300,000 compounds or so, about 37,000 (12%) were called active. Shown is part of a subset that was picked to be rich in actives.
The compounds listed here are annotated with their max response.
Just the number please, in %, no unit attached.

Query block: Please report the recorded max response for CCN1CCN(CC(=O)Nc2sc3c(c2C#N)CCC3)CC1 .
Result block: 1.34

Query block: Please report the recorded max response for COC(=O)C(C)n1cnc2c(nnn2-c2cccc(Cl)c2)c1=O (stereo not given) .
Result block: -1.58

Query block: Please report the recorded max response for CCOC(=O)c1ccc(NC(=S)N2CCCC2)cc1 .
Result block: 9.83

Query block: Please report the recorded max response for O=C(NCC(=O)N1CCC2(CC1)NCCc1[nH]cnc12)c1ccc(Br)cc1 .
Result block: 1.26

Query block: Please report the recorded max response for CCN(CC(=O)Nc1ccc2c(c1)OCO2)S(=O)(=O)c1ccccc1 .
Result block: -0.651

Query block: Please report the recorded max response for CC(=O)c1c(C)[nH]c(C(=O)OCC(=O)Nc2sc3c(c2C#N)CCCC3)c1C .
Result block: -1.13

Query block: Please report the recorded max response for COc1cccc(NC(=O)COC(=O)CCOc2ccccc2OC)c1 .
Result block: -1.24
